meta.source: paper PMC12410356

tested on: E. multilocularis metacestode vesicles; experiment: Metacestode vesicle viability assay (ATP, CellTiter-Glo); assay type: cell-based, Echinococcus multilocularis; conditions: overview screen, 10 μM, singlets, 12 days, relative to DMSO control
observable: Viability d12 (relative viability) (%)

compound: CN(O)C(=O)c1cc2c(CN3CCC[C@H]3C(N)=O)cn(Cc3ccc(F)cc3)c2cn1
observable: Viability d12 (relative viability)
result: 103.448
//
compound: N#Cc1cc([N+](=O)[O-])ccc1Oc1ccccc1Cl
observable: Viability d12 (relative viability)
result: 90.6917
//
compound: Cc1onc(-c2ccccc2)c1-c1ccc(S(N)(=O)=O)cc1
observable: Viability d12 (relative viability)
result: 84.2251
//
compound: CCCCSc1nc(N)c2[nH]c(=O)c(=O)n(Cc3ccccc3)c2n1
observable: Viability d12 (relative viability)
result: 63.4578
//
compound: COc1ccc(CNC(=O)C2CCN(C(C)c3cccc4ccccc34)CC2)cc1 (centres unmarked)
observable: Viability d12 (relative viability)
result: 68.3168
//
compound: CCc1nc(N)nc(N)c1C#CC(C)c1cc(OC)cc(-c2ccncc2)c1 (centres unmarked)
observable: Viability d12 (relative viability)
result: 16.6994
//
compound: CC(C)(C)c1ccc(C(Cn2cccc(C(F)(F)F)c2=O)NC2Cc3ccccc3C2)cc1 (centres unmarked)
observable: Viability d12 (relative viability)
result: 102.314
//
compound: O=C(CSc1nnc(Br)n1-c1ccc(C2CC2)c2ccccc12)Nc1ccc(C(=O)O)cc1Cl
observable: Viability d12 (relative viability)
result: 116.37
//
compound: O=C(NC12CC3CC(CC(C3)C1)C2)c1cc2ccccc2[nH]1
observable: Viability d12 (relative viability)
result: 82.8787
//
compound: CN(C)CCCNC(=O)c1ccc(-c2cc(O)c3ncccc3c2)cc1
observable: Viability d12 (relative viability)
result: 174.002
//
compound: Cc1cc(Nc2ccc(F)cc2)nc(SCc2nc3ccccc3[nH]2)n1
observable: Viability d12 (relative viability)
result: 46.2574
//
compound: O=C(NNC(=S)Nc1ccc(Cl)cc1)c1ccncc1
observable: Viability d12 (relative viability)
result: 12.3576
//
compound: O=c1cc(Nc2ccc3ccccc3c2)[nH]c(=O)[nH]1
observable: Viability d12 (relative viability)
result: 58.2809
//
compound: CC(C)Nc1ncnc2c1cnn2-c1ccc(Cl)cc1
observable: Viability d12 (relative viability)
result: 65.6735
//
compound: Cc1c(CN(C)C(=O)/C=C/c2cnc3c(c2)C(C)(C)C(=O)N3)oc2ccccc12
observable: Viability d12 (relative viability)
result: 5.845
//
compound: O=C(c1ccccc1)N1CCN(c2ccccc2NC(=O)C(Cl)(Cl)Cl)CC1
observable: Viability d12 (relative viability)
result: 104.308
//
compound: N#CCN1C(=O)COc2cc(F)c(N3C(=O)c4ccccc4C3=O)cc21
observable: Viability d12 (relative viability)
result: 95.5206
//
compound: CCCCCCC1c2ccc(O)cc2Oc2cc(O)ccc21
observable: Viability d12 (relative viability)
result: 92.5147
//
compound: Cc1nc2ccc(Cl)cc2c(-c2ccccc2)c1CC(=O)O
observable: Viability d12 (relative viability)
result: 42.503
//
compound: CC(C)c1ccc(COc2cccc(-c3cc([S+](C)[O-])c(C#N)c(=O)[nH]3)c2)cc1 (centres unmarked)
observable: Viability d12 (relative viability)
result: 210.079
//
compound: CCc1cc(CCC(=O)Nc2ccccc2O)c(=O)[nH]c1C
observable: Viability d12 (relative viability)
result: 488.194
//
compound: Oc1ccc2[nH]c(-c3ccccc3)nc2c1
observable: Viability d12 (relative viability)
result: 56.2358
//
compound: O=C(O)c1ccc(-c2ccc(O[C@H]3O[C@H](CO)[C@@H](O)[C@H](O)[C@@H]3O)cc2)cc1
observable: Viability d12 (relative viability)
result: 109.047
